meta.source: ChEMBL document CHEMBL5058564

# Tested on: Fibroblast
# experiment: Incucyte cell viability with human fibroblast; also: unitless GR value; below 1 slowed growth and below 0 cell loss
# Assay type: toxicity, cell-based
# particulars: 0 h, 10 µM, compound concentration 10 uM, replicate number 1, timepoint 0 hours
readout: Growth Rate
Please respond with just the number, no unit label.

Here are 3 molecules together with their reported answers.
molecule | Growth Rate
Cc1ccccc1C#Cc1ccc(CCC(=O)O)cc1 | 0.45
O=C(NCCNCC(O)COc1ccc(O)cc1)N1CCOCC1.O=C(NCCNCC(O)COc1ccc(O)cc1)N1CCOCC1.O=C(O)/C=C/C(=O)O (centres undefined) [XAMOTEROL FUMARATE] | -0.24
O=c1ccn([C@@H]2O[C@H](COP(=O)([O-])OP(=O)([O-])OP(=O)([O-])OP(=O)([O-])OC[C@H]3O[C@@H](n4ccc(=O)[nH]c4=O)[C@H](O)[C@@H]3O)[C@@H](O)[C@H]2O)c(=O)[nH]1.[Na+].[Na+].[Na+].[Na+] [DIQUAFOSOL TETRASODIUM] | 0.39

Query: Hi! What's the reported Growth Rate for CC1=C(C)C(=O)C(C(C)(C)CC(=O)N(CCCCSC[C@H]2O[C@@H](n3cnc4c(N)ncnc43)[C@H](O)[C@@H]2O)Cc2cccc(-c3ccc(Cl)cc3)c2)=C(C)C1=O on Fibroblast?
Result: 0.23

Query: Hi! What's the reported Growth Rate for O=C1[C@H](Cc2ccc(O)cc2)N2C(=O)CCN(C(=O)NCc3ccccc3)[C@H]2CN1Cc1cccc2ccccc12 on Fibroblast?
Result: 0.78

Query: Hi! What's the reported Growth Rate for O=C(O)Cc1ccccc1Nc1c(Cl)cccc1Cl on Fibroblast?
Result: 0.78

Query: Hi! What's the reported Growth Rate for CSc1cc2c(cc1C(F)(F)F)N(C(=O)Nc1cccnc1)CC2 on Fibroblast?
Result: -0.3

Query: Hi! What's the reported Growth Rate for Br.Br.c1ncc(CC2CCNCC2)[nH]1 on Fibroblast?
Result: 0.49

Query: Hi! What's the reported Growth Rate for CC(C)(C)c1ccc(S(=O)(=O)Nc2ccc(Cl)cc2C(=O)c2cc[n+]([O-])cc2)cc1 on Fibroblast?
Result: 0.29

====

# System: HEK-293T
# experiment: Incucyte cell viability with HEK293T; also: unitless GR value; below 1 slowed growth and below 0 cell loss
# Assay type: toxicity, cell-based
# particulars: human, 12 h, 10 µM, compound concentration 10 uM, replicate number 2, timepoint 12 hours
readout: Growth Rate
Please respond with just the number, no unit label.

Here are 3 compounds together with their reported answers.
compound | study.target | Growth Rate
Brc1c(N=C2NCCN2)ccc2nccnc12.O=C(O)C(O)C(O)C(=O)O | HEK-293T | 0.72
CN(C)[C@H]1CN(C2CCc3cccc(F)c32)C[C@@H]1c1ccc(N2CCN(S(C)(=O)=O)CC2)cc1 (some centres undefined) | HEK-293T | 0.71
O=C(O)CCCCCC[C@H]1C(=O)NC(=O)N1CCC(O)C1CCCCC1 (some centres undefined) | HEK-293T | 0.68

Query: What measured Growth Rate goes with CC[C@H](NC(=O)c1c(C)c(-c2ccccc2)nc2ccccc12)c1ccccc1 [SB-222200] ?
Result: 0.72

====

# Test system: Fibroblast
# experiment: Incucyte cell viability with human fibroblast; also: unitless GR value; below 1 slowed growth and below 0 cell loss
# Assay type: toxicity, cell-based
# particulars: 0 h, 10 µM, compound concentration 10 uM, replicate number 1, timepoint 0 hours
readout: Growth Rate
Please respond with just the number, no unit label.

Here are 5 compounds together with their reported answers.
compound | Growth Rate
Cc1sc2c(c1C)C(c1ccc(Cl)cc1)=N[C@@H](CC(=O)NCCCCCCCCNC(=O)COc1cccc3c1C(=O)N(C1CCC(=O)NC1=O)C3=O)c1nnc(C)n1-2 (stereo partly drawn) | 0.46
N[C@@H]1c2cccnc2[C@H](OC(=O)N2CCC(n3c(=O)[nH]c4ncccc43)CC2)CC[C@H]1c1cccc(F)c1F | 0.86
O=C(c1cc(C2CC2)on1)N(C1CCCCC1)C1CCCCC1 | 0.81
Cl.Clc1cccc(Cl)c1NC1=NCCN1 [CLONIDINE HYDROCHLORIDE] | 0.82
CC(C)Oc1ccc(-c2c[nH]cc2CN(C)CCO)cc1 | 0.53

Query: What measured Growth Rate goes with COCCCN1CCC(NC(=O)c2cc(Cl)c(N)c3c2OCC3)CC1 [PRUCALOPRIDE] ?
Result: 0.48

Query: What measured Growth Rate goes with CN[C@@H]1C[C@H]2O[C@@](C)([C@@H]1OC)n1c3ccccc3c3c4c(c5c6ccccc6n2c5c31)C(=O)NC4 ?
Result: 0.05

Query: What measured Growth Rate goes with N#Cc1c(N)nc(SCc2csc(-c3ccc(Cl)cc3)n2)c(C#N)c1-c1ccc(OCCO)cc1 ?
Result: 0.09

Query: What measured Growth Rate goes with Cc1ccc(/C(=C\CN2CCCC2)c2ccccn2)cc1 ?
Result: 0.54

Query: What measured Growth Rate goes with Cc1ccc2c(c1CCC(=O)O)CC[C@@H](NS(=O)(=O)c1ccc(Cl)cc1)C2 ?
Result: -0.56

Query: What measured Growth Rate goes with COc1cc(NC(=O)CCN2CCC(OC(=O)Nc3ccccc3-c3ccccc3)CC2)c(Cl)cc1CNC[C@H](O)c1ccc(O)c2[nH]c(=O)ccc12 ?
Result: -0.65

Query: What measured Growth Rate goes with Cc1ccccc1N1CCN(CCc2nnc3n2CCCC3)CC1.Cl [DAPIPRAZOLE HYDROCHLORIDE] ?
Result: -0.42

Query: What measured Growth Rate goes with Cc1cc(CN)cc(C)c1-c1ncn(C)c1-c1cncn1C ?
Result: 0.66

====

# Test system: HEK-293T
# experiment: Incucyte cell viability with HEK293T; also: unitless GR value; below 1 slowed growth and below 0 cell loss
# Format: toxicity, cell-based
# particulars: human, 6 h, 10 µM, compound concentration 10 uM, replicate number 1, timepoint 6 hours
readout: Growth Rate
Please respond with just the number, no unit label.

Here are 2 compounds together with their reported answers.
compound | study.target | result
NCCc1cn(S(=O)(=O)c2c(Cl)nc3sccn23)c2ccccc12.O=C(O)C(=O)O | HEK-293T | -0.34
O=c1ccn([C@@H]2O[C@H](COP(=O)([O-])OP(=O)([O-])OP(=O)([O-])OP(=O)([O-])OC[C@H]3O[C@@H](n4ccc(=O)[nH]c4=O)[C@H](O)[C@@H]3O)[C@@H](O)[C@H]2O)c(=O)[nH]1.[Na+].[Na+].[Na+].[Na+] [DIQUAFOSOL TETRASODIUM] | HEK-293T | 0.69

Query: What measured Growth Rate goes with CN(CCN1CCC(OC(=O)Nc2ccccc2-c2ccccc2)CC1)C(=O)c1ccc(CN2CCC(C(N)=O)CC2)cc1 [REVEFENACIN] ?
Result: 0.97

Query: What measured Growth Rate goes with O=C(O)CCCCCC[C@H]1C(=O)NC(=O)N1CCC(O)C1CCCCC1 (some centres not stated) ?
Result: 0.84

Query: What measured Growth Rate goes with CC(C)Oc1ccc(F)c(-c2cnc(N)c(C(=O)Nc3cnccc3N3CCC[C@@H](C(=O)O)C3)n2)c1 ?
Result: 0.66

Query: What measured Growth Rate goes with CCC(=O)OCC(=O)[C@@]1(OC(=O)CC)[C@@H](C)C[C@H]2[C@@H]3CCC4=CC(=O)C=C[C@]4(C)[C@@]3(Cl)[C@@H](O)C[C@@]21C [BECLOMETHASONE DIPROPIONATE] ?
Result: 0.91

Query: What measured Growth Rate goes with Cc1cc(O)c(-c2ccc([C@@H](C)CN(C)C)cc2)c2c1[nH]c(=O)c1sccc12 ?
Result: -0.8

====

# Test system: Fibroblast
# experiment: Incucyte cell viability with human fibroblast; also: unitless GR value; below 1 slowed growth and below 0 cell loss
# Assay type: toxicity, cell-based
# particulars: 6 h, 10 µM, compound concentration 10 uM, replicate number 2, timepoint 6 hours
// -1 strictly below 0.5 in Growth Rate; 1 otherwise

Here are 4 compounds together with their reported answers.
compound | assigned.category
COC[C@@H](c1ccc(C(F)(F)F)cc1)N1CCN(C2(C)CCN(C(=O)c3c(C)ncnc3C)CC2)C[C@@H]1C.O=C(O)/C=C\C(=O)O [VICRIVIROC MALEATE] | 1
Cn1cnc(-c2cc3nccc(Oc4ccc(NC(=S)NC(=O)Cc5ccccc5)cc4F)c3s2)c1 | -1
O=c1ccn([C@@H]2O[C@H](COP(=O)([O-])OP(=O)([O-])OP(=O)([O-])OP(=O)([O-])OC[C@H]3O[C@@H](n4ccc(=O)[nH]c4=O)[C@H](O)[C@@H]3O)[C@@H](O)[C@H]2O)c(=O)[nH]1.[Na+].[Na+].[Na+].[Na+] [DIQUAFOSOL TETRASODIUM] | 1
CCCCCCCCc1ccc(CCC(N)(CO)CO)cc1 [FINGOLIMOD] | -1

# input for lookup
Query: Can OCCN1CCN(CCCN2c3ccccc3Sc3ccc(Cl)cc32)CC1 [PERPHENAZINE] be said to have Growth Rate at or above 0.5?
Result: 1

====

# System: Fibroblast
# experiment: Incucyte cell viability with human fibroblast; also: unitless GR value; below 1 slowed growth and below 0 cell loss
# Type: toxicity, cell-based
# particulars: 12 h, 10 µM, compound concentration 10 uM, replicate number 2, timepoint 12 hours
Quick reference for Growth Rate among some compounds
Please respond with just the number, no unit label.

Here are 5 compounds together with their reported answers.
compound | Growth Rate
N#Cc1c(Oc2cccc(OS(=O)(=O)CCCC(F)(F)F)c2)cccc1C(F)(F)F | -0.08
COC(c1ccccc1)(c1ccccc1)[C@H](Oc1nc(C)cc(C)n1)C(=O)O | 0.6
Cc1sc2c(c1C)C(c1ccc(Cl)cc1)=N[C@@H](CC(=O)NCCCCCCCCNC(=O)COc1cccc3c1C(=O)N(C1CCC(=O)NC1=O)C3=O)c1nnc(C)n1-2 (stereo partly specified) | -0.2
Nc1nccc(-c2ccn3c(N)nccc23)n1 | 0.84
CCCCC1=NC2(CCCC2)C(=O)N1Cc1ccc(-c2ccccc2-c2nnn[nH]2)cc1 | 0.98

Alright, here's another compound for you.
Query: What measured Growth Rate goes with C[C@@](Cc1c[nH]c2ccccc12)(NC(=O)Nc1ccc([N+](=O)[O-])cc1)C(=O)NCC1(c2ccccn2)CCCCC1 ?
Result: -0.59
